Recorded GI50, one value per entry.
- Test system: MOLT-4
- TEST: Antiproliferative activity against human MOLT-4 cells assessed as inhibition of cell growth with replenishment of medium with compound on day 4 and 7 and measured after 12 days by ATPlite assay
- Assay type: functional
- CONDITIONS: MOLT-4, 288 h, time 12 day

So for "Cc1c(C(=O)N[C@@H](CCC2CC2)C(=O)Nc2ccc(C#N)cc2)[nH]c2c1C(=O)CC(C)(C)C2" , the logged GI50 turned out to be 21.3 nM

So for "Cc1c(C(=O)N[C@H](CCC2CC2)C(=O)Nc2ccccc2)[nH]c2c1C(=O)CC(C)(C)C2" , the logged GI50 turned out to be 1790 nM

So for "Cc1c(C(=O)N[C@H](CCC2CC2)C(=O)Nc2ccc(C#N)cc2)[nH]c2c1C(=O)CC(C)(C)C2" , the logged GI50 turned out to be 2370 nM

So for Cc1c(C(=O)NC(CCC2CC2)C(=O)Nc2ccc(C#N)cc2)[nH]c2c1C(=O)CC(C)(C)C2 (racemic) , the logged GI50 turned out to be 278 nM

So for "COc1cc2c(NC3CCN(C(C)C)CC3)nc(C3CCCCC3)nc2cc1OCCCN1CCCC1" , the logged GI50 turned out to be 188 nM

So for Cc1c(C(=O)NC(CCC2CC2)C(=O)Nc2ccccc2)[nH]c2c1C(=O)CC(C)(C)C2 (racemic) , the logged GI50 turned out to be 1790 nM

* * *

- TESTED_ON: Histone-lysine N-methyltransferase EHMT2 (Homo sapiens, UniProt Q96KQ7)
- Sequence (Q96KQ7 whole entry, the tested form may be a part): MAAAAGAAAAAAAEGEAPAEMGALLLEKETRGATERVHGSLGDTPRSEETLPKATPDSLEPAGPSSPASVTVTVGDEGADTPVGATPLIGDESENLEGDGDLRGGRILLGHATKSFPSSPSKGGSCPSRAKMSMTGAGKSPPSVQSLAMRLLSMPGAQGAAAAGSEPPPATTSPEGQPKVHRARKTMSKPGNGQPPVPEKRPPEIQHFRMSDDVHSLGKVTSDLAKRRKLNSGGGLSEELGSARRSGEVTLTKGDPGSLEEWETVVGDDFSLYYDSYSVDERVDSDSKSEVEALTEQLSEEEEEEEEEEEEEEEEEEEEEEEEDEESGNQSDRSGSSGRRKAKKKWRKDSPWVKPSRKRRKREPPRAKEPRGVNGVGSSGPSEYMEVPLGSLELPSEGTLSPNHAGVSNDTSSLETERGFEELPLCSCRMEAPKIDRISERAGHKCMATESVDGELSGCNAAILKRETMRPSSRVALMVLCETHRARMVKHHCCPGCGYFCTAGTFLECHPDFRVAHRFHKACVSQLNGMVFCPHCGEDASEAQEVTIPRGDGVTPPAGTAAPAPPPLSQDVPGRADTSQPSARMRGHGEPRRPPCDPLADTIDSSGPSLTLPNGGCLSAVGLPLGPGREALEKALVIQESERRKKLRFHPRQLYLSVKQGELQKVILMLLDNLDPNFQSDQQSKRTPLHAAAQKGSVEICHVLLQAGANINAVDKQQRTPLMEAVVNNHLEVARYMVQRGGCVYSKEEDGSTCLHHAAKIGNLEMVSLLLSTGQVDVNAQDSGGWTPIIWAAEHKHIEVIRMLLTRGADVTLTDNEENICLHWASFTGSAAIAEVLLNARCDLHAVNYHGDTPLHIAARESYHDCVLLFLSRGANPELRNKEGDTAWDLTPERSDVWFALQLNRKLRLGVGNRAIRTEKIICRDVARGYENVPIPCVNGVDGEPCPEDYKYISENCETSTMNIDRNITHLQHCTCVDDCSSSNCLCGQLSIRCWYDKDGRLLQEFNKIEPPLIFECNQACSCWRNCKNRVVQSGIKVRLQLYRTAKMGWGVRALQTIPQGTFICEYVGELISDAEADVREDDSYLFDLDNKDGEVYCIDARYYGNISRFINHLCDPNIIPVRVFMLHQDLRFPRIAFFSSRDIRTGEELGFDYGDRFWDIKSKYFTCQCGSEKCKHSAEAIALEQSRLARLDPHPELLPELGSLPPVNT
- TEST: Inhibition of N-terminal GST-tagged human recombinant G9a (785 to 1210 residues) expressed in baculovirus infected Sf9 cells incubated for 1 hr by AlphaLISA analysis
ATTRIBUTE_MEASURED: IC50 (nM)
Report only the number, with the unit nM understood.

Previously resolved entries follow.
| MOLECULE | IC50 / nM |
| --- | --- |
| Cc1c(C(=O)N[C@@H](CCC2CC2)C(=O)Nc2ccccc2)[nH]c2c1C(=O)CC(C)(C)C2 | 39.6 |
| CCCCC(NC(=O)c1[nH]c2c(c1C)C(=O)CC(C)(C)C2)C(=O)Nc1ccc(C)cc1 (racemic) | 491 |

So for Cc1c(C(=O)NC(CCC2(C)CC2)C(=O)Nc2ccccc2)[nH]c2c1C(=O)CC(C)(C)C2 (racemic) , the logged IC50 turned out to be 1360

So for CCCCC(NC(=O)c1[nH]c2c(c1C)C(=O)CC(C)(C)C2)C(=O)Nc1ccccn1 (racemic) , the logged IC50 turned out to be 4260

So for CCCCC(NC(=O)c1[nH]c2c(c1C)C(=O)CC(C)(C)C2)C(=O)Nc1ccc(C(N)=O)cc1 (racemic) , the logged IC50 turned out to be 526

So for CCCCC(NC(=O)c1[nH]c2c(c1C)C(=O)CC(C)(C)C2)C(=O)Nc1ccccc1C#N (racemic) , the logged IC50 turned out to be 1570

So for CCCCC(NC(=O)c1[nH]c2c(c1C)C(=O)CC(C)(C)C2)C(=O)Nc1cccc(OC)c1 (racemic) , the logged IC50 turned out to be 1210

* * *

- TESTED_ON: Histone-lysine N-methyltransferase EHMT2 (Homo sapiens)
- TEST: Inhibition of N-terminal GST-tagged human recombinant G9a (785 to 1210 residues) expressed in baculovirus infected Sf9 cells incubated for 1 hr by AlphaLISA analysis
ATTRIBUTE_MEASURED: log10 of IC50 (log10 of the value in nM)
A difference of one corresponds to tenfold IC50; all values are log10 with IC50 in nM.

Previously resolved entries follow.
| COMPOUND | TESTED_ON | log10 of IC50 |
| --- | --- | --- |
| Cc1c(C(=O)NC(CC2CC2)C(=O)Nc2ccccc2)[nH]c2c1C(=O)CC(C)(C)C2 (racemic) | Histone-lysine N-methyltransferase EHMT2 (Homo sapiens) | 3.06 |
| CCCCC(NC(=O)c1[nH]c2c(c1C)C(=O)CC(C)(C)C2)C(=O)NC1CCCCC1 (racemic) | Histone-lysine N-methyltransferase EHMT2 (Homo sapiens) | 2.97 |
| CCCC[C@H](NC(=O)c1[nH]c2c(c1CC)C(=O)CC(C)(C)C2)C(=O)Nc1ccccc1 | Histone-lysine N-methyltransferase EHMT2 (Homo sapiens) | 2.25 |
| CCCCC(NC(=O)c1[nH]c2c(c1C)C(=O)CC(C)(C)C2)C(=O)Nc1ccc(F)cc1 (racemic) | Histone-lysine N-methyltransferase EHMT2 (Homo sapiens) | 2.96 |
| CCCC[C@H](NC(=O)c1[nH]c2c(c1C)C(=O)CC1(CCOCC1)C2)C(=O)Nc1ccccc1 | Histone-lysine N-methyltransferase EHMT2 (Homo sapiens) | 3.32 |

With those in mind, consider the next compound.
So for "CCCC[C@H](NC(=O)c1[nH]c2c(c1C)C(=O)CC(C)(C)C2)c1nc2ccccc2[nH]1" , the logged log10 of IC50 turned out to be 3.28

* * *

- TESTED_ON: UniProt Q9H9B1
- Sequence (Q9H9B1 whole entry): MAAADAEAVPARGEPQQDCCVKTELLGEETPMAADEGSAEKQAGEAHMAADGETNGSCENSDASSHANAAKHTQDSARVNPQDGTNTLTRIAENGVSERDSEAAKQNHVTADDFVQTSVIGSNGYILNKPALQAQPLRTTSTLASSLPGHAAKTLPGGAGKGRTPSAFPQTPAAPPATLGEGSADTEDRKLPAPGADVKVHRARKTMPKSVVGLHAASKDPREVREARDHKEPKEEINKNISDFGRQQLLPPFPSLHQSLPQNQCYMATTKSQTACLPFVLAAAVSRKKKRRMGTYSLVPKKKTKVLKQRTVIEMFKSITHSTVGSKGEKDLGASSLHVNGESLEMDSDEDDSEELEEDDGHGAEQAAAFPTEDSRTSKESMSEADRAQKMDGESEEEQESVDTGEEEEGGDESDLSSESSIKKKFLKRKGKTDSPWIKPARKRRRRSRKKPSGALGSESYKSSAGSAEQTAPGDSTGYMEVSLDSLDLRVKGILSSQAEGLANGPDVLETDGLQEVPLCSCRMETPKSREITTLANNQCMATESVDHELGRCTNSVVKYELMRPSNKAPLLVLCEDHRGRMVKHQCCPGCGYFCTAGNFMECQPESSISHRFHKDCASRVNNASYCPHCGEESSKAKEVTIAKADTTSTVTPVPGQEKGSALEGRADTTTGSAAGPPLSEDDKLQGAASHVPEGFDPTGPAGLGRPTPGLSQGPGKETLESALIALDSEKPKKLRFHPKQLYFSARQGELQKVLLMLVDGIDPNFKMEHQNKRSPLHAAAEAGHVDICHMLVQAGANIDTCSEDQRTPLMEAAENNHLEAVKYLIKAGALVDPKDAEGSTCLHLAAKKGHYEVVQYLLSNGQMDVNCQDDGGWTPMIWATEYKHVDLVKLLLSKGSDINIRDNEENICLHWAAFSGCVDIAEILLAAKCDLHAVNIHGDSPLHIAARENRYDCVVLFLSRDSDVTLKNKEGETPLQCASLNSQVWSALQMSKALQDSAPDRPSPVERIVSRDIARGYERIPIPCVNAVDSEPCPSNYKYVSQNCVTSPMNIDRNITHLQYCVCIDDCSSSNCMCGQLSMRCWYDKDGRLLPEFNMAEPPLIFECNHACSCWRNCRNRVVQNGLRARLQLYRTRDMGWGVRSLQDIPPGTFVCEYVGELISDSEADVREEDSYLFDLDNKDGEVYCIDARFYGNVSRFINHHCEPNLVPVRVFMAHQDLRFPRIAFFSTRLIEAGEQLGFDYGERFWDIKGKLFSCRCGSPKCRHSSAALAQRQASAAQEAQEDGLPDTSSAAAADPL
ATTRIBUTE_MEASURED: pIC50
Convention used: pIC50 is expressed as -log10 of the molar concentration.

| CHEMICAL_SMILES | TEST_VALUE |
| --- | --- |
| Cc1c(C(=O)N[C@H](CCC2CC2)C(=O)Nc2ccc(C#N)cc2)[nH]c2c1C(=O)CC(C)(C)C2 | 7.28 |

With those in mind, consider the next compound.
So for "COc1cc2c(cc1C1=CCN(C)CCC1)N=C(N)C21CCC1" , the logged pIC50 turned out to be 7.12

* * *

- TEST: Cmax in ICR mouse at 25 mg/kg, ip
- Assay type: ADME, organism-based
- Set-up: dose 25 mg/kg, route ip
- CONDITIONS: in vivo
ATTRIBUTE_MEASURED: Cmax (µM)
Report only the number, with the unit µM understood.

So for "Cc1c(C(=O)N[C@H](CCC2CC2)C(=O)Nc2ccccc2)[nH]c2c1C(=O)CC(C)(C)C2" , the logged Cmax turned out to be 4.14

So for "Cc1c(C(=O)N[C@H](CCC2CC2)C(=O)Nc2ccc(C#N)cc2)[nH]c2c1C(=O)CC(C)(C)C2" , the logged Cmax turned out to be 42.4
